Test Name: Cellular toxicity by [3H]-thymidine uptake
Type: cell-based
Condition Info: human, Table 4, read-out: CC50 (μM) [^3H-]TTP incorporation in: Molt-4
Quantity Kind: CC50 at 72 h (µM)
Write the number in µM without appending the unit.

INPUT: Look up CC50 at 72 h: Cc1cn([C@H]2C[C@H](N=[N+]=[N-])[C@@H](CO)O2)c(=O)[nH]c1=O
OUTPUT: 3

All figures here come from patent US20010049372A1.
